TARGET OF ASSAY: T1, human Claudin18.2 (human, UniProt P56856 1-261)
T1 sequence (looked up): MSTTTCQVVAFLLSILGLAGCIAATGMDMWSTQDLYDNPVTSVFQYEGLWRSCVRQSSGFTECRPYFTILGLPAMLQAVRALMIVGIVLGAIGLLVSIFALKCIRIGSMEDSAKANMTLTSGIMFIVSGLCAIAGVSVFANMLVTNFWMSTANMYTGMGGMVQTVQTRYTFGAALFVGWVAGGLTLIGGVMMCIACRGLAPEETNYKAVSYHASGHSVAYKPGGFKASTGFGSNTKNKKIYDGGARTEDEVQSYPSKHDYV
ASSAY METHOD TEXT: cell-based or functional assay
IC50 of in vitro cell killing on MC38-hClaudin18.2 cells (AlamarBlue cell viability) reference
All answers are understood in nM, so give the number only.

// known answers, use as guide
>>> measured_number("9D1-vc-PAB-MMAE (antibody, human IgG1, kappa, V domains shown, MC-VC-PAB-MMAE linker-drug on partially reduced interchain cysteines (Conjugation Method 2, DAR 4)) VH: QIQLVQSGAEVKKPGASVKISCKASGYSFTDYHMNWVRQAPGKGLEWIGNIDPYYGSPTYNHKFKGRVTLTVDTSTSTAYMELSSLRSEDTAVYYCANYGRGNSFPYWGQGTLVTVSS VL: DIVMTQSPSSLAVSLGERATINCKSSQSLLNSGNQRNYLTWYQQKPGQPPKLLIYWASTRESGVPDRFSGSGSGTDFTLTISSLQAEDVAVYYCQNDYSFPFTFGQGTKLEIKR")
0.407
>>> measured_number("9D1-LD-31-P2 (antibody, human IgG1, kappa, V domains shown, LD-31-P2 linker-drug (Exatecan) on reduced interchain cysteines (Conjugation Method 1, DAR 8)) VH: QIQLVQSGAEVKKPGASVKISCKASGYSFTDYHMNWVRQAPGKGLEWIGNIDPYYGSPTYNHKFKGRVTLTVDTSTSTAYMELSSLRSEDTAVYYCANYGRGNSFPYWGQGTLVTVSS VL: DIVMTQSPSSLAVSLGERATINCKSSQSLLNSGNQRNYLTWYQQKPGQPPKLLIYWASTRESGVPDRFSGSGSGTDFTLTISSLQAEDVAVYYCQNDYSFPFTFGQGTKLEIKR")
2.91

// IC50 of in vitro cell killing on MC38-hClaudin18.2 cells (AlamarBlue cell viability) lookup, binder = 9D1-LD-72 (antibody, human IgG1, kappa, V domains shown, LD-72 linker-drug (Exatecan) on reduced interchain cysteines (Conjugation Method 1, DAR 8)) VH: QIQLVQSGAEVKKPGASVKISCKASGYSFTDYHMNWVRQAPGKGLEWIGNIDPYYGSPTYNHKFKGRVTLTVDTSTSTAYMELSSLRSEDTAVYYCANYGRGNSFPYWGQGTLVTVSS VL: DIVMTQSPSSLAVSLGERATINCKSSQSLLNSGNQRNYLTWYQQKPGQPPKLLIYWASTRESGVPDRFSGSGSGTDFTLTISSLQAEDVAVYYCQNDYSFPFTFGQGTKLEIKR , result: 1.08

// IC50 of in vitro cell killing on MC38-hClaudin18.2 cells (AlamarBlue cell viability) lookup, binder = 9D1-LD-74 (antibody, human IgG1, kappa, V domains shown, LD-74 linker-drug (Exatecan, polysarcosine side chain) on reduced interchain cysteines (Conjugation Method 1, DAR 8)) VH: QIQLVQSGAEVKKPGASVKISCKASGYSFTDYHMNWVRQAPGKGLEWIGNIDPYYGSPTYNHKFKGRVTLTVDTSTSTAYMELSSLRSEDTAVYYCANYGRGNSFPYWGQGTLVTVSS VL: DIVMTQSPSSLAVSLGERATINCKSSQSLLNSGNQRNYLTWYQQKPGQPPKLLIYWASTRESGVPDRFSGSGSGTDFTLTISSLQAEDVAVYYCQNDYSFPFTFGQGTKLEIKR , result: 2.22

// IC50 of in vitro cell killing on MC38-hClaudin18.2 cells (AlamarBlue cell viability) lookup, binder = 9D1-LD-12 (antibody, human IgG1, kappa, V domains shown, LD-12 linker-drug (Exatecan) on reduced interchain cysteines (Conjugation Method 1, DAR 8)) VH: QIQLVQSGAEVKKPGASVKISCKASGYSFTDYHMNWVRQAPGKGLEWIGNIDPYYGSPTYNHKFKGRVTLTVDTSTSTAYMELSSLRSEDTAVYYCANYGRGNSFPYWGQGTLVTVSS VL: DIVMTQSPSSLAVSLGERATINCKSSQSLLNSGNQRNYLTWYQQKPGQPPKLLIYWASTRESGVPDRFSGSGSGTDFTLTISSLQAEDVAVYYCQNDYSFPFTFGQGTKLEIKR , result: 0.799

// IC50 of in vitro cell killing on MC38-hClaudin18.2 cells (AlamarBlue cell viability) lookup, binder = 9D1-LD-57 (antibody, human IgG1, kappa, V domains shown, LD-57 linker-drug (MMAE) on partially reduced interchain cysteines (Conjugation Method 2, DAR 4)) VH: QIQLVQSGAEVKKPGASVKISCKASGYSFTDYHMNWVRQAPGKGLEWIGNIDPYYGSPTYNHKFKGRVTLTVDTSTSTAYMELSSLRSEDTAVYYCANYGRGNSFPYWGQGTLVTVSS VL: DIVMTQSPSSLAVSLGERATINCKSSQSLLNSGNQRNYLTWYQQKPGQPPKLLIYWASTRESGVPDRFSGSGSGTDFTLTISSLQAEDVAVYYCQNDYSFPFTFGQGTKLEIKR , result: 0.53
